System: Estrogen-receptor
Experiment: Estrogen-receptor test (KF)
Type: binding
Condition Set: estradiol = 1.0
Property: Estrogen-receptor test (KF)
# answer = number (no unit)

# input Look up Estrogen-receptor test (KF) of C[C@]12CC[C@@H]3c4ccc(O)cc4CC[C@H]3[C@@]13CC[C@H](C3)[C@@H]2O and report it.
# output 1.0

# input Look up Estrogen-receptor test (KF) of C[C@]12CC[C@@H]3c4ccc(O)cc4CC[C@H]3[C@@H]1CC[C@@H]2O [Estradiol, reference compound] and report it.
# output 1.0

# input Look up Estrogen-receptor test (KF) of C[C@]12CC[C@@H]3c4ccc(O)cc4CC[C@H]3[C@@H]1CC[C@H]2O [17α-Estradiol, reference compound] and report it.
# output 46.0

# input Look up Estrogen-receptor test (KF) of C[C@]12CC[C@@H]3c4ccc(O)cc4CC[C@H]3[C@@]13C=C[C@H](C3)[C@H]2O and report it.
# output 1.5

# input Look up Estrogen-receptor test (KF) of C[C@]12CC[C@@H]3c4ccc(O)cc4CC[C@H]3[C@@]13CC[C@H](C3)[C@H]2O and report it.
# output 0.5
